Where do the numbers come from? From patent US20230303695A1.

Target: T1, recombinant human IGSF8 extracellular domain tagged by a human Fc region (IGSF8-hFc) (human, UniProt Q969P0 28-579, biotin label in Examples 17, 18 and 28 (site not given))
T1 construct: also called IGSF8-Fc fusion protein; IGSF8-hFc-biotin; not shown: human Fc region
T1 sequence: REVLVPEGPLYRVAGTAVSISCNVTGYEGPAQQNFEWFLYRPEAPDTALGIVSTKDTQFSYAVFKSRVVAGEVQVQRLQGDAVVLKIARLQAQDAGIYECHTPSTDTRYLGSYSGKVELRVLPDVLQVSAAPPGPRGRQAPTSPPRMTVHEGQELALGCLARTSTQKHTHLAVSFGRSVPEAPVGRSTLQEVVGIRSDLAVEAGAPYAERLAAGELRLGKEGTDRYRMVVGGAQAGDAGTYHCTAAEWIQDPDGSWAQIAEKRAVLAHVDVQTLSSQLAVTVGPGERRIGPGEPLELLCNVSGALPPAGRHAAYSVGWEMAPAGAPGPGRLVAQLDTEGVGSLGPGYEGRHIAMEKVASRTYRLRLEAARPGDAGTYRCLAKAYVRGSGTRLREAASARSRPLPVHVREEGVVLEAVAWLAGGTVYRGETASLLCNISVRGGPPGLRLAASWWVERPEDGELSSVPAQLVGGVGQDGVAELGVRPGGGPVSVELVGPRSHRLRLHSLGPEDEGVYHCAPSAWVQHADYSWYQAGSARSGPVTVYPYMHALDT
Assay: SPR, Ab captured
Reported kon values for the following binders.
Your answer should be a plain number; it is taken to be in M⁻¹ s⁻¹.

Consider the following illustrative entries.
L1-33 (antibody, V domains shown) VH: QVQLVESGGGVVQPGRSLRLSCAASGFTFSTYGMHWVRQAPGKGLEWVAVIWDGGKYKYYGDSVKGRFTISRDNSKNTLYLQMNSLRAEDTAVYYCARDGSGWGYAFDIWGQGTLVTVSS VL: DIQLTQSPSSLSASVGDRVTITCQASQDIGPWLNWYQHKPGKAPKPLVFGSPNLETGVPSRFSASGSGTDFTLTISSLQPEDFATYYCQQYDSFPYTFGQGTKVEIK : 276000
L1-24 (antibody, V domains shown) VH: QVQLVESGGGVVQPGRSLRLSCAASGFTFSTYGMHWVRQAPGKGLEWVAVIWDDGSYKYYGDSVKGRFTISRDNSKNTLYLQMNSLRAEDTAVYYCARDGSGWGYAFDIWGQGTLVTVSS VL: DIQLTQSPSSLSASVGDRVTITCQASQDIGPYLNWYQHKPGKAPKPLVFGSPNLETGVPSRFSASGSGTDFTLTISSLQPEDFATYYCQQYDSFPYTFGQGTKVEIK : 450000
L1VH-D54T (antibody, V domains shown) VH: QVQLVESGGGVVQPGRSLRLSCAASGFTFSTYGMHWVRQAPGKGLEWVAVIWDTGSYKYYGDSVKGRFTISRDNSKNTLYLQMNSLRAEDTAVYYCARDGSGWGYAFDIWGQGTMVTVSS VL: DIQLTQSPSSLSASVGDRVTITCQASQDISEYLNWYQHKPGKAPNPLVFDAANLETGVPPRFSATGSGTDFSLTITSLQPEDFATYYCQQYDSFPYTFGQGTRLDIK : 2290

// L1-30 (antibody, V domains shown) VH: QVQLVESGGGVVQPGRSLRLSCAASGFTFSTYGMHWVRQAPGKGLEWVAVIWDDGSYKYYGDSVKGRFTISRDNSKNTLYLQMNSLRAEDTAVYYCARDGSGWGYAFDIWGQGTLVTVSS VL: DIQLTQSPSSLSASVGDRVTITCQASQDIGPWLNWYQHKPGKAPKPLVFGADNLETGVPSRFSASGSGTDFTLTISSLQPEDFATYYCQQYDSFPYTFGQGTKVEIK : kon value = 472000

// L1-29 (antibody, V domains shown) VH: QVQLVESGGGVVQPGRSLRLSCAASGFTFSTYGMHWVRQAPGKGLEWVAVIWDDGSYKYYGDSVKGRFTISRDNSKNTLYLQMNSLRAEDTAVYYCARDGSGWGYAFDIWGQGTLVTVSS VL: DIQLTQSPSSLSASVGDRVTITCQASQDIGPWLNWYQHKPGKAPKPLVFDAPNLETGVPSRFSASGSGTDFTLTISSLQPEDFATYYCQQYDSFPYTFGQGTKVEIK : kon value = 381000

// L1-28 (antibody, V domains shown) VH: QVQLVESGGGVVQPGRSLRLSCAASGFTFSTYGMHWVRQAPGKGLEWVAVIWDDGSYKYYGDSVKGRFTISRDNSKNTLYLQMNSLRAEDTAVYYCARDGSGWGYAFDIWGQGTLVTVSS VL: DIQLTQSPSSLSASVGDRVTITCQASQDIEWWLNWYQHKPGKAPKPLIYGSPNLETGVPSRFSGSGSGTDFTFTISSLQPEDIATYYCQQYDSFPYTFGQGTKVEIK : kon value = 367000

// L2VH-R98K (antibody, V domains shown) VH: EVQLVESGGGLEQPGGSLRLSCAGSGFTFRDYAMTWVRQAPGKGLEWVSSISGSGGNTYYADSVKGRFTISRDNSKNTLYLQMNSLRAEDTAIYYCAKGEYSSGWPSWFDPWGQGTLVTVSS VL: EIVLTQSPSSLSASVGDRVTISCRASRTVGTFLNWYQQRPGKPPQALILGVSILEGGVSSRFSGAGSGTEFSLTISSLQPEDIGTYYCQQSHDVPRTFGQGTKVDLR : kon value = 51000

// L2-09 (antibody, V domains shown) VH: EVQLVESGGGLEQPGGSLRLSCAASGFTFRDYAMTWVRQAPGKGLEWVSSISGSGGSTYYADSVKGRFTISRDNSKNTLYLQMNSLRAEDTAIYYCARGEYSSGWPSWFDPWGQGTLVTVSS VL: DIQMTQSPSSLSASVGDRVTITCRASRTVGTFLNWYQQKPGKAPKALILHTSILEGGVPSRFSGSGSGTDFTLTISSLQPEDIGTYYCQQSHDVPRTFGQGTKVEIK : kon value = 151000

// L2VH-T35S (antibody, V domains shown) VH: EVQLVESGGGLEQPGGSLRLSCAGSGFTFRDYAMSWVRQAPGKGLEWVSSISGSGGNTYYADSVKGRFTISRDNSKNTLYLQMNSLRAEDTAIYYCARGEYSSGWPSWFDPWGQGTLVTVSS VL: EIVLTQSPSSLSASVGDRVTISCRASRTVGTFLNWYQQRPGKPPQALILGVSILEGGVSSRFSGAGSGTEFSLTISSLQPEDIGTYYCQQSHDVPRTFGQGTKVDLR : kon value = 61100

// L2-04 (antibody, V domains shown) VH: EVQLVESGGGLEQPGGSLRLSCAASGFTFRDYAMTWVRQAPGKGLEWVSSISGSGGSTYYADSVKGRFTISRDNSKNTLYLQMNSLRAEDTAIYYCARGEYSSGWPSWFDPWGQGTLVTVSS VL: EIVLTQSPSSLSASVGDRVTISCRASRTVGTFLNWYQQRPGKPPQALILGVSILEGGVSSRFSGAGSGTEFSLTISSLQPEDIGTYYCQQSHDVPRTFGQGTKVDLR : kon value = 47600
